Please provide measured pIC50 for the entries that follow.
# System: MCF-7 breast cancer cells
# test-description: Growth inhibition by MTT staining, MCF-7
# Type: cell-based
# measurement-conditions: MCF7, 96 h, Human, tumor cells, treated four days
pIC50 is defined as minus the log10 of a concentration measured in mol/L.

Query: Which pIC50 is reported for this compound? O=C(N/N=C/c1c(O)ccc2ccccc12)c1ccn[nH]1 [PCNA-I2]
Reply: 6.00

Query: Which pIC50 is reported for this compound? Cc1ccsc1C(=O)N/N=C/c1ccc2ccccc2c1O [PCNA-I1]
Reply: 6.82

* * *

# Tested on: 22Rv1 prostate cancer cells
# test-description: Growth inhibition by MTT staining, 22Rv1
# Format: cell-based
# measurement-conditions: 22Rv1, 96 h, Human tumor cells, treated four days
experimental-readout: IC50 (nM)
Write the number in nM without appending the unit.

Query: Which IC50 is reported for this compound? Cc1ccsc1C(=O)N/N=C/c1ccc2ccccc2c1O
Reply: 180

* * *

Please provide measured pIC50 for the entries that follow.
# Test system: LAPC-4 prostate cancer cells
# test-description: Growth inhibition by MTT staining, LAPC-4
# Format: cell-based
# measurement-conditions: LAPC4, 96 h, Human tumor cells, treated four days
pIC50 is defined as minus the log10 of a concentration measured in mol/L.

Query: Which pIC50 is reported for this compound? O=C(N/N=C/c1c(O)ccc2ccccc12)c1ccn[nH]1
Reply: 5.75

Query: Which pIC50 is reported for this compound? Cc1ccsc1C(=O)N/N=C/c1ccc2ccccc2c1O
Reply: 6.52

* * *

# Tested on: PC-3 prostate cancer cells
# test-description: Growth inhibition by MTT staining, PC-3
# Type: cell-based, Human
# measurement-conditions: Homo sapiens, PC-3, 96 h; Table III; MTT, four days; mean of two experiments; read-out: IC50 Values of PCNA Inhibitors, PC-3 Cells
Could you please mark class 1 for values of IC50 below 2000 nM and class 0 for values at or above it?

Query: Strictly below 2000 nM: is that where IC50 of C/C(=N\NC(=O)c1cccc(F)c1)c1ccc2ccccc2c1O [PCNA-I8] sits?
Reply: class 1

Query: Strictly below 2000 nM: is that where IC50 of Cc1ccc2[nH]c(=O)c(/C=N/NC(=O)c3ccccc3)c(O)c2c1 [PCNA-I6] sits?
Reply: class 0

Query: Strictly below 2000 nM: is that where IC50 of O=C(N/N=C/c1ccc2ccccc2c1O)c1cccc(Cl)c1 [PCNA-I3] sits?
Reply: class 1

Query: Strictly below 2000 nM: is that where IC50 of O=C(NNS(=O)(=O)c1ccc(Br)cc1)c1c(O)c2ccccc2[nH]c1=O [PCNA-I4] sits?
Reply: class 0

Query: Strictly below 2000 nM: is that where IC50 of O=C(N/N=C/c1ccc2ccccc2c1O)c1sc2ccccc2c1O [PCNA-I7] sits?
Reply: class 0

Query: Strictly below 2000 nM: is that where IC50 of O=C(NNC(=O)c1c(O)c2ccccc2[nH]c1=O)c1ccccc1[N+](=O)[O-] [PCNA-I10] sits?
Reply: class 0

Query: Strictly below 2000 nM: is that where IC50 of C/C(=N\NC(=O)c1ccccc1O)c1ccc2ccccc2c1O [PCNA-I9] sits?
Reply: class 0

* * *

# System: LNCaP cells
# test-description: MTT assay, PCNA-I1 and cisplatin alone or combined, LNCaP
# Assay type: cell-based, Human
# measurement-conditions: MTT, four days, single agent; read-out: IC50 doses for cell growth inhibition, LNCaP, agent alone
experimental-readout: IC50 (µM)
Write the number in µM without appending the unit.

Query: Provide the documented IC50 with LNCaP cells as the system for N.N.[Cl][Pt][Cl] [cisplatin, reference compound]
Reply: 0.65
